experiment: Selectivity index, ratio of IC50 for rat L6 cells to IC50 for Trypanosoma brucei rhodesiense STIB900; format: toxicity, cell-based; settings: read-out: Ratio IC50
TEST_READOUT: selectivity ratio
Answer with a bare number; do not write a unit.

The following compounds have reported results that may help.
N=C(N)c1cccc(OCc2ccc(COc3cccc(C(=N)N)c3)cc2)c1 103
c1cc(COc2ccc(C3=NCCN3)cc2)ccc1COc1ccc(C2=NCCN2)cc1 79.5
N=C(N)c1ccc(OCc2cccc(COc3ccc(C(=N)N)cc3)c2)cc1 4350
c1cc(OCc2ccccc2COc2cccc(C3=NCCN3)c2)cc(C2=NCCN2)c1 2.75
N=C(N)c1ccc(OCc2ccccc2COc2ccc(C(=N)N)cc2)cc1 209
c1ccc(COc2ccc(C3=NCCN3)cc2)c(COc2ccc(C3=NCCN3)cc2)c1 168

Data point: N=C(NO)c1cccc(OCc2cccc(COc3cccc(C(=N)NO)c3)c2)c1 ; selectivity ratio = 1.12

Data point: CC(C)NC(=N)c1ccc(OCc2ccccc2COc2ccc(C(=N)NC(C)C)cc2)cc1 ; selectivity ratio = 97

Data point: N=C(N)c1cccc(OCc2ccccc2COc2cccc(C(=N)N)c2)c1 ; selectivity ratio = 602

Data point: CC(C)NC(=N)c1ccc(OCc2ccc(COc3ccc(C(=N)NC(C)C)cc3)c3ccccc23)cc1 ; selectivity ratio = 134

---

test system: L6; experiment: Cytotoxicity against rat L6 cells; type: cell-based
TEST_READOUT: pIC50
# pIC50 = -log10(concentration in molar units)

N=C(N)c1ccc(OCc2ccc(COc3ccc(C(=N)N)cc3)c3ccccc23)cc1 4.55
N=C(N)c1cccc(OCc2cccc(COc3cccc(C(=N)N)c3)c2)c1 4.19

Let us move to another entry and its pIC50.
Data point: N=C(NO)c1cccc(OCc2cccc(COc3cccc(C(=N)NO)c3)c2)c1 ; pIC50 = 5.07

---

A collection of compounds and their measured selectivity ratio
assay: Selectivity index, ratio of IC50 for rat L6 cells to IC50 for chloroquine-resistant Plasmodium falciparum K1; type: toxicity, cell-based; settings: read-out: Ratio IC50

N=C(N)c1ccc(OCc2ccccc2COc2ccc(C(=N)N)cc2)cc1 197
N=C(N)c1cccc(OCc2cccc(COc3cccc(C(=N)N)c3)c2)c1 3360
c1cc(COc2ccc(C3=NCCN3)cc2)cc(COc2ccc(C3=NCCN3)cc2)c1 6860
N=C(NO)c1ccc(OCc2cccc(COc3ccc(C(=N)NO)cc3)c2)cc1 < 0.628
CC(C)NC(=N)c1cccc(OCc2ccc(COc3cccc(C(=N)NC(C)C)c3)cc2)c1 1830

Data point: N=C(N)c1ccc(OCc2cccc(COc3ccc(C(=N)N)cc3)c2)cc1 ; selectivity ratio = 357

Data point: N=C(N)c1cccc(OCc2ccccc2COc2cccc(C(=N)N)c2)c1 ; selectivity ratio = 775

Data point: c1cc(OCc2ccc(COc3cccc(C4=NCCN4)c3)cc2)cc(C2=NCCN2)c1 ; selectivity ratio = 175

Data point: CC(C)NC(=N)c1cccc(OCc2ccccc2COc2cccc(C(=N)NC(C)C)c2)c1 ; selectivity ratio = > 1470

Data point: CC(C)NC(=N)c1ccc(OCc2ccc(COc3ccc(C(=N)NC(C)C)cc3)cc2)cc1 ; selectivity ratio = > 9820

---

test system: Trypanosoma brucei rhodesiense; assay: Antitrypanosomal activity against Trypanosoma brucei rhodesiense STIB900 infected NMRI mouse assessed mean survival time at 20 mg/kg, ip dosed for 4 days; assay type: functional; conditions: route intraperitoneal
A collection of compounds and their measured Survival
Remember to put the unit after the number in your answer.

The following compounds have reported results that may help.
COMPOUND	TARGET_UNDER_TEST	Survival
N=C(N)c1ccc(OCc2cc(COc3ccc(C(=N)N)cc3)c3ccccc3c2)cc1	Trypanosoma brucei rhodesiense	12 days
N=C(N)c1cccc(OCc2ccc(COc3cccc(C(=N)N)c3)cc2)c1	Trypanosoma brucei rhodesiense	19.5 days
c1cc(COc2ccc(C3=NCCN3)cc2)ccc1COc1ccc(C2=NCCN2)cc1	Trypanosoma brucei rhodesiense	15 days
N=C(N)c1ccc(OCc2ccc(COc3ccc(C(=N)N)cc3)cc2)cc1	Trypanosoma brucei rhodesiense	32 days
N=C(N)c1ccc(OCCCCCOc2ccc(C(=N)N)cc2)cc1 [PENTAMIDINE]	Trypanosoma brucei rhodesiense	42.8 days

Data point: N=C(N)c1ccc(OCc2ccccc2COc2ccc(C(=N)N)cc2)cc1 ; Survival = 13.5 days

Data point: c1cc(COc2ccc(C3=NCCN3)cc2)cc(COc2ccc(C3=NCCN3)cc2)c1 ; Survival = 22.8 days

---

assay: Selectivity index, ratio of IC50 for rat L6 cells to IC50 for Leishmania donovani MHOM/SD/62/1S-CL2D amastigotes; format: toxicity, cell-based; settings: read-out: Ratio IC50
TEST_READOUT: selectivity ratio
Answer with a bare number; do not write a unit.

c1cc(COc2ccc(C3=NCCN3)cc2)ccc1COc1ccc(C2=NCCN2)cc1 15.9
N=C(N)c1ccc(OCc2cccc(COc3ccc(C(=N)N)cc3)c2)cc1 2.8
CC(C)NC(=N)c1cccc(OCc2ccc(COc3cccc(C(=N)NC(C)C)c3)cc2)c1 5.89
c1ccc(COc2ccc(C3=NCCN3)cc2)c(COc2ccc(C3=NCCN3)cc2)c1 29.8

Data point: c1cc(COc2ccc(C3=NCCN3)cc2)cc(COc2ccc(C3=NCCN3)cc2)c1 ; selectivity ratio = 30.9

Data point: N=C(N)c1ccc(OCc2ccc(COc3ccc(C(=N)N)cc3)cc2)cc1 ; selectivity ratio = 9.4

---

assay: Selectivity index, ratio of IC50 for rat L6 cells to IC50 for chloroquine-resistant Plasmodium falciparum K1; type: toxicity, cell-based; settings: read-out: Ratio IC50
A collection of molecules and their measured selectivity ratio
Answer with a bare number; do not write a unit.

The following molecules have reported results that may help.
CC(C)NC(=N)c1ccc(OCc2ccccc2COc2ccc(C(=N)NC(C)C)cc2)cc1 15000
N=C(N)c1cccc(OCc2ccc(COc3cccc(C(=N)N)c3)cc2)c1 119
N=C(N)c1ccc(OCc2ccc(COc3ccc(C(=N)N)cc3)cc2)cc1 194

Data point: c1cc(COc2ccc(C3=NCCN3)cc2)ccc1COc1ccc(C2=NCCN2)cc1 ; selectivity ratio = 1680

Data point: N=C(N)c1ccc(OCc2cc(COc3ccc(C(=N)N)cc3)c3ccccc3c2)cc1 ; selectivity ratio = 1250

Data point: c1ccc(COc2ccc(C3=NCCN3)cc2)c(COc2ccc(C3=NCCN3)cc2)c1 ; selectivity ratio = 10500

Data point: c1cc(OCc2ccccc2COc2cccc(C3=NCCN3)c2)cc(C2=NCCN2)c1 ; selectivity ratio = 184

Data point: CC(C)NC(=N)c1ccc(OCc2ccc(COc3ccc(C(=N)NC(C)C)cc3)c3ccccc23)cc1 ; selectivity ratio = 625

Data point: N=C(NO)c1cccc(OCc2cccc(COc3cccc(C(=N)NO)c3)c2)c1 ; selectivity ratio = 4.12

Data point: N=C(N)c1ccc(OCc2ccc(COc3ccc(C(=N)N)cc3)c3ccccc23)cc1 ; selectivity ratio = 224

---

system: L6; assay: Cytotoxicity against rat L6 cells; type: cell-based
TEST_READOUT: pIC50
# pIC50 = -log10(concentration in molar units)

c1cc(COc2ccc(C3=NCCN3)cc2)ccc1COc1ccc(C2=NCCN2)cc1 4.52
N=C(N)c1cccc(OCc2ccc(COc3cccc(C(=N)N)c3)cc2)c1 5.10
CC(C)NC(=N)c1ccc(OCc2ccccc2COc2ccc(C(=N)NC(C)C)cc2)cc1 3.79
CC(C)NC(=N)c1ccc(OCc2ccc(COc3ccc(C(=N)NC(C)C)cc3)c3ccccc23)cc1 4.38

Data point: N=C(N)c1cccc(OCc2ccccc2COc2cccc(C(=N)N)c2)c1 ; pIC50 = 4.07

---

A collection of molecules and their measured selectivity ratio
test: Selectivity index, ratio of IC50 for rat L6 cells to IC50 for Trypanosoma brucei rhodesiense STIB900; type: toxicity, cell-based; settings: read-out: Ratio IC50
Answer with a bare number; do not write a unit.

The following molecules have reported results that may help.
MOLECULE	TEST_READOUT	ENDPOINT_RESULT
N=C(N)c1ccc(OCc2ccc(COc3ccc(C(=N)N)cc3)c3ccccc23)cc1	selectivity ratio	121
c1cc(OCc2ccc(COc3cccc(C4=NCCN4)c3)cc2)cc(C2=NCCN2)c1	selectivity ratio	13.9
CC(C)NC(=N)c1cccc(OCc2ccc(COc3cccc(C(=N)NC(C)C)c3)cc2)c1	selectivity ratio	72.4

Data point: c1cc(COc2ccc(C3=NCCN3)cc2)cc(COc2ccc(C3=NCCN3)cc2)c1 ; selectivity ratio = 2670

Data point: Nc1nc(N)nc(Nc2ccc([As]3SCC(CO)S3)cc2)n1 (stereo not given) ; selectivity ratio = 1220

Data point: N=C(N)c1ccc(OCc2ccc(COc3ccc(C(=N)N)cc3)cc2)cc1 ; selectivity ratio = 600

Data point: N=C(N)c1cccc(OCc2cccc(COc3cccc(C(=N)N)c3)c2)c1 ; selectivity ratio = 1360

Data point: N=C(N)c1ccc(OCc2cc(COc3ccc(C(=N)N)cc3)c3ccccc3c2)cc1 ; selectivity ratio = 212
